- Test system: ACHN
- protocol_details: NCI 60 cell panel SRB screen
- Type: cell-based
- reported_conditions: Homo sapiens, 5 log dose
assay_metric: IC (TGI) (µM)

molecule="O=C(Nc1ccc(Cl)cc1)Nc1ccc(Oc2nncc3ccccc23)cc1 [Compound 7b]" measured_on=ACHN value_comparator== observed_result=2.33
molecule="Clc1ccc(Nc2nnc(CNc3ccccc3)c3ccccc23)cc1 [Compound 16a]" measured_on=ACHN value_comparator=> observed_result=25
molecule="COc1cccc(NCc2nnc(Nc3ccc(Cl)cc3)c3ccccc23)c1 [Compound 16d]" measured_on=ACHN value_comparator== observed_result=24.4
molecule="O=C(Nc1ccc(Cl)cc1)Nc1ccc(Nc2nncc3ccccc23)cc1 [Compound 6b]" measured_on=ACHN value_comparator== observed_result=7.12
molecule="Clc1ccc(Nc2nnc(COc3ccccc3)c3ccccc23)cc1 [Compound 17a]" measured_on=ACHN value_comparator=> observed_result=25
molecule="Cc1nnc(Nc2ccc(NC(=O)Nc3ccc(Cl)cc3)cc2)c2ccccc12 [Compound 6e]" measured_on=ACHN value_comparator== observed_result=3.69
molecule="O=C(Nc1ccccc1)Nc1ccc(Oc2nnc(Cl)c3ccccc23)cc1 [Compound 13a]" measured_on=ACHN value_comparator== observed_result=18.7

---

- System: HCC-2998
- protocol_details: NCI 60 cell panel SRB screen
- Assay type: cell-based
- reported_conditions: Homo sapiens; HCC-2998, single dose 10 μM; read-out: percent cell growth promotion
activity at 10 µM for assorted compounds
assay_metric: activity at 10 µM (%)

compound="Cc1nnc(Nc2ccc(NC(=O)c3ccc(Cl)cc3)cc2)c2ccccc12 [Compound 5d]" observed_result=125
compound="c1ccc(N2CCN(c3nncc4ccccc34)CC2)nc1 [Compound 8d]" observed_result=117
compound="CCOC(=O)N1CCN(c2nnc(C)c3ccccc23)CC1 [Compound 8f]" observed_result=99.8
compound="Cc1nnc(Nc2ccc(NC(=O)Nc3ccc(Cl)cc3)cc2)c2ccccc12 [Compound 6e]" observed_result=40.5
compound="Cc1nnc(Oc2ccc(NC(=O)Nc3ccc(Cl)cc3)cc2)c2ccccc12 [Compound 7e]" observed_result=110
compound="Cc1nnc(N2CCN(c3ccccc3)CC2)c2ccccc12 [Compound 8g]" observed_result=109
compound="Clc1ccc(Nc2nnc(CNc3ccccc3)c3ccccc23)cc1 [Compound 16a]" observed_result=18.3
compound="Cc1nnc(N2CCN(c3ccccc3F)CC2)c2ccccc12 [Compound 8h]" observed_result=101
compound="COc1cccc(NCc2nnc(Nc3ccc(Cl)cc3)c3ccccc23)c1 [Compound 16d]" observed_result=2.79
compound="Clc1ccc(Nc2nnc(COc3ccccc3)c3ccccc23)cc1 [Compound 17a]" observed_result=8.55
compound="O=C(Nc1ccc(Nc2nncc3ccccc23)cc1)c1ccc(Cl)cc1 [Compound 5b]" observed_result=113
compound="O=C(Nc1ccc(Cl)cc1)Nc1ccc(Oc2nncc3ccccc23)cc1 [Compound 7b]" observed_result=-42.2

---

- System: HOP-92
- protocol_details: NCI 60 cell panel SRB screen
- Type: cell-based
- reported_conditions: Homo sapiens; HOP-92, single dose 10 μM; read-out: percent cell growth promotion
Each record is given 1 (yes) if its reported activity at 10 µM is strictly below 10%. Records at or above 10% are given 0 (no).

compound="O=C(Nc1ccc(Cl)cc1)Nc1ccc(Oc2nnc(Cl)c3ccccc23)cc1 [Compound 13b]" cat="0 (no)"
compound="O=C(Nc1ccc(Nc2nncc3ccccc23)cc1)c1ccc(Cl)cc1 [Compound 5b]" cat="0 (no)"
compound="O=C(Nc1ccc(Cl)cc1)Nc1ccc(Oc2nncc3ccccc23)cc1 [Compound 7b]" cat="0 (no)"
compound="Cc1nnc(Nc2ccc(NC(=O)Nc3ccc(Cl)cc3)cc2)c2ccccc12 [Compound 6e]" cat="1 (yes)"
compound="Cc1nnc(Oc2ccc(NC(=O)Nc3ccc(Cl)cc3)cc2)c2ccccc12 [Compound 7e]" cat="0 (no)"

---

activity at 10 µM for assorted compounds
- Tested on: HL-60(TB)
- protocol_details: NCI 60 cell panel SRB screen
- Type: cell-based
- reported_conditions: Homo sapiens, single dose 10 μM, read-out: percent cell growth promotion
assay_metric: activity at 10 µM (%)

compound="O=C(Nc1ccccc1)Nc1ccc(Oc2nnc(Cl)c3ccccc23)cc1 [Compound 13a]" observed_result=12.1
compound=Cc1nnc(Nc2ccc(NC(=O)c3ccc(Cl)cc3)cc2)c2ccccc12 observed_result=103
compound=CCOC(=O)N1CCN(c2nncc3ccccc23)CC1 observed_result=108
compound=Cc1nnc(Oc2ccc(NC(=O)Nc3ccc(Cl)cc3)cc2)c2ccccc12 observed_result=80.1
compound=Cc1nnc(N2CCN(c3ccccc3F)CC2)c2ccccc12 observed_result=110
compound="Clc1ccc(Nc2nnc(COc3ccccc3)c3ccccc23)cc1 [Compound 17a]" observed_result=-15.7
compound=c1ccc(N2CCN(c3nncc4ccccc34)CC2)nc1 observed_result=96.6
compound=CCOC(=O)N1CCN(c2nnc(C)c3ccccc23)CC1 observed_result=114
compound=Cc1nnc(N2CCN(c3ccccc3)CC2)c2ccccc12 observed_result=103

---

Measured GI50 (SR)
assay_metric: GI50 (µM)

molecule=O=C(Nc1ccc(Cl)cc1)Nc1ccc(Oc2nncc3ccccc23)cc1 observed_result=0.4
molecule="Clc1ccc(Nc2nnc(COc3ccccc3)c3ccccc23)cc1 [Compound 17a]" observed_result=1.23
molecule=Cc1nnc(Nc2ccc(NC(=O)Nc3ccc(Cl)cc3)cc2)c2ccccc12 observed_result=2.56
molecule=O=C(Nc1ccc(Cl)cc1)Nc1ccc(Nc2nncc3ccccc23)cc1 observed_result=3.89
molecule="Clc1ccc(Nc2nnc(CNc3ccccc3)c3ccccc23)cc1 [Compound 16a]" observed_result=1.75
molecule="O=C(Nc1ccccc1)Nc1ccc(Oc2nnc(Cl)c3ccccc23)cc1 [Compound 13a]" observed_result=1.93
molecule="COc1cccc(NCc2nnc(Nc3ccc(Cl)cc3)c3ccccc23)c1 [Compound 16d]" observed_result=0.97

---

- System: HepG-2
- protocol_details: In vitro cytotoxic activity, SRB assay
- Type: cell-based
- reported_conditions: Homo sapiens, HepG2; HepG-2, 48h
IC50 for assorted compounds
assay_metric: IC50

compound="Clc1ccc(Nc2nnc(CNc3cccc(Cl)c3)c3ccccc23)cc1 [Compound 16b]" measured_on=HepG-2 observed_result="77.6 µM"
compound="O=C(Nc1ccc(Cl)cc1)Nc1ccc(Nc2nnc(Cl)c3ccccc23)cc1 [Compound 12b]" measured_on=HepG-2 observed_result="174 µM"
compound="Cc1cccc(OCc2nnc(Nc3ccc(Cl)cc3)c3ccccc23)c1 [Compound 17b]" measured_on=HepG-2 observed_result="39 µM"
compound="COc1cccc2c1C(=O)c1c(O)c3c(c(O)c1C2=O)C[C@@](O)(C(=O)CO)C[C@@H]3O[C@H]1C[C@H](N)[C@H](O)[C@H](C)O1 [Dox, doxorubicin, reference compound]" measured_on=HepG-2 observed_result="0.5 µM"
compound="Cc1cccc(NCc2nnc(Nc3ccc(Cl)cc3)c3ccccc23)c1 [Compound 16c]" measured_on=HepG-2 observed_result="> 1000 µM"
compound="O=C(Nc1ccc(Nc2nnc(Cl)c3ccccc23)cc1)Nc1ccc(Cl)c(C(F)(F)F)c1 [Compound 12c]" measured_on=HepG-2 observed_result="> 1000 µM"
compound="O=C(Nc1ccccc1)Nc1ccc(Nc2nnc(Cl)c3ccccc23)cc1 [Compound 12a]" measured_on=HepG-2 observed_result="> 1000 µM"

---

- System: HL-60(TB)
- protocol_details: NCI 60 cell panel SRB screen
- Assay type: cell-based
- reported_conditions: Homo sapiens, single dose 10 μM, read-out: percent cell growth promotion
assay_metric: activity at 10 µM (%)

compound="Clc1ccc(Nc2nnc(CNc3ccccc3)c3ccccc23)cc1 [Compound 16a]" assay_metric="activity at 10 µM" unit_abbreviation=% observed_result=-13.3
compound="O=C(Nc1ccc(Cl)cc1)Nc1ccc(Oc2nnc(Cl)c3ccccc23)cc1 [Compound 13b]" assay_metric="activity at 10 µM" unit_abbreviation=% observed_result=67.3
compound="O=C(Nc1ccc(Nc2nncc3ccccc23)cc1)c1ccc(Cl)cc1 [Compound 5b]" assay_metric="activity at 10 µM" unit_abbreviation=% observed_result=103
compound="COc1cccc(NCc2nnc(Nc3ccc(Cl)cc3)c3ccccc23)c1 [Compound 16d]" assay_metric="activity at 10 µM" unit_abbreviation=% observed_result=-27.1
compound="O=C(Nc1ccc(Cl)cc1)Nc1ccc(Nc2nncc3ccccc23)cc1 [Compound 6b]" assay_metric="activity at 10 µM" unit_abbreviation=% observed_result=18.1
compound="Cc1nnc(N2CCN(c3ccccn3)CC2)c2ccccc12 [Compound 8i]" assay_metric="activity at 10 µM" unit_abbreviation=% observed_result=108
compound="Cc1nnc(Nc2ccc(NC(=O)Nc3ccc(Cl)cc3)cc2)c2ccccc12 [Compound 6e]" assay_metric="activity at 10 µM" unit_abbreviation=% observed_result=-34.8
compound="O=C(Nc1ccc(Cl)cc1)Nc1ccc(Oc2nncc3ccccc23)cc1 [Compound 7b]" assay_metric="activity at 10 µM" unit_abbreviation=% observed_result=3.65

---

Measured GI50 (SNB-19)
assay_metric: GI50 (µM)

molecule="COc1cccc(NCc2nnc(Nc3ccc(Cl)cc3)c3ccccc23)c1 [Compound 16d]" assay_metric=GI50 observed_result=3.5
molecule=Cc1nnc(Nc2ccc(NC(=O)Nc3ccc(Cl)cc3)cc2)c2ccccc12 assay_metric=GI50 observed_result=2.77
molecule="O=C(Nc1ccccc1)Nc1ccc(Oc2nnc(Cl)c3ccccc23)cc1 [Compound 13a]" assay_metric=GI50 observed_result=1.67
molecule="Clc1ccc(Nc2nnc(CNc3ccccc3)c3ccccc23)cc1 [Compound 16a]" assay_metric=GI50 observed_result=4.71
molecule="Clc1ccc(Nc2nnc(COc3ccccc3)c3ccccc23)cc1 [Compound 17a]" assay_metric=GI50 observed_result=3.2
molecule=O=C(Nc1ccc(Cl)cc1)Nc1ccc(Oc2nncc3ccccc23)cc1 assay_metric=GI50 observed_result=1.74
molecule=O=C(Nc1ccc(Cl)cc1)Nc1ccc(Nc2nncc3ccccc23)cc1 assay_metric=GI50 observed_result=3.67
